test: Cycloheximide Counterscreen for Small Molecule Inhibitors of Shiga Toxin; conditions: cell reporter, cycloheximide protein synthesis inhibition counterscreen; also: read at 38.3 µM for the half of the compounds with a filed dose
Out of some 300,000 compounds screened, about 37,000 (12%) were called active. Rule as the data show it: active = max response mostly above about 13% (no sharp cut-off); inactive = mostly below about 14%. The full list was thinned out, with actives kept by preference.
Assign a class; possible classes are label 1 = active, label 0 = inactive

These solved cases illustrate the format of a correct answer.
{"columns": ["molecule", "cat"],
 "data": [
  ["COC(=O)c1cc(C)sc1NC(=O)CC1Nc2ccccc2NC1=O (centres undefined)", "label 1"],
  ["O=c1[nH]nc(SCCS(=O)(=O)c2ccc(F)cc2)n1-c1ccccc1C(F)(F)F", "label 0"],
  ["O=C(CCNC(=O)C1CCN(S(=O)(=O)c2ccccc2)CC1)NC1CC1", "label 0"],
  ["CCOc1ccc(NC(=O)CC2NCCNC2=O)cc1 (centres undefined)", "label 0"],
  ["COc1ccc(C(=O)OCC(=O)NCC2CCCO2)cc1[N+](=O)[O-] (centres undefined)", "label 0"]
]}

Here is the next item to consider.
Per the assay record, what outcome was assigned to CCc1cc(C(=O)OC)c(NC(=O)CC2Sc3ccc(C(F)(F)F)cc3NC2=O)s1 (centres undefined) ?
label 0
